Where do the numbers come from? From patent US20180016327A1.

Readings of % binding (parent = 100) for the listed binders
Target entity: T1, human C5 (human, UniProt P01031 19-673; P01031 678-1676, Beta and alpha chains are disulfide-linked and the protein is glycosylated.)
T1 construct: Either in-house recombinant C5 or plasma derived C5 (CALBIOCHEM) was used; also called recombinant human C5; plasma derived human C5
Assay remarks: Biacore, captured antibody, pH 7.4, 37 C;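 also: biacore binding response of anti-C5 antibody light chain variants captured on chip with human C5 injected, ACES running buffer containing 1.2 mM CaCl₂, parent light chain antibody set to 100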
Give just the numeric value; % need not be written.

Binder	Unit	% binding (parent = 100)
CFP0015 15L 93N (antibody, V domains shown) VH: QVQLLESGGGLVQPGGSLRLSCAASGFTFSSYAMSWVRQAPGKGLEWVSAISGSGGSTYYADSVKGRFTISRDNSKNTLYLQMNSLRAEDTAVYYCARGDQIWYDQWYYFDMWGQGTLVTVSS VL: DIQMTQSPSSLSASVGDRVTITCRASQSIEDDLAWYQQKPGKAPKLLIYEASNLQSGVPSRFSGSGSGTDFTLTISSLQPEDFATYYCQQYDNSPLTFGQGTKVEIK	%	80.4
CFP0018 18L 93G (antibody, V domains shown) VH: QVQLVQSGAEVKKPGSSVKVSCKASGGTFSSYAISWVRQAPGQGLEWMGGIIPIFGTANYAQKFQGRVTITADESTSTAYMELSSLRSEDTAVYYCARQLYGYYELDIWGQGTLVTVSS VL: DIQMTQSPSSLSASVGDRVTITCRASQSISDDLAWYQQKPGKAPKLLIYEASSLQSGVPSRFSGSGSGTDFTLTISSLQPEDFATYYCQQYNGYPLTFGQGTKVEIK	%	79.1

Query: Entry CFP0018 18L 94H (antibody, V domains shown) VH: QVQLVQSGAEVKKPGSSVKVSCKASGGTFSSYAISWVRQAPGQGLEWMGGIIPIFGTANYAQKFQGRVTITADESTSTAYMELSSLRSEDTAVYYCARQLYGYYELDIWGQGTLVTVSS VL: DIQMTQSPSSLSASVGDRVTITCRASQSISDDLAWYQQKPGKAPKLLIYEASSLQSGVPSRFSGSGSGTDFTLTISSLQPEDFATYYCQQYNSHPLTFGQGTKVEIK : reported % binding (parent = 100) = ?
Result: 17.6
